What z-score was measured for each of the following?
- testedSystem: Luciferin 4-monooxygenase (Photinus pyralis) (UniProt P08659)
- Sequence (P08659 whole entry, looked up): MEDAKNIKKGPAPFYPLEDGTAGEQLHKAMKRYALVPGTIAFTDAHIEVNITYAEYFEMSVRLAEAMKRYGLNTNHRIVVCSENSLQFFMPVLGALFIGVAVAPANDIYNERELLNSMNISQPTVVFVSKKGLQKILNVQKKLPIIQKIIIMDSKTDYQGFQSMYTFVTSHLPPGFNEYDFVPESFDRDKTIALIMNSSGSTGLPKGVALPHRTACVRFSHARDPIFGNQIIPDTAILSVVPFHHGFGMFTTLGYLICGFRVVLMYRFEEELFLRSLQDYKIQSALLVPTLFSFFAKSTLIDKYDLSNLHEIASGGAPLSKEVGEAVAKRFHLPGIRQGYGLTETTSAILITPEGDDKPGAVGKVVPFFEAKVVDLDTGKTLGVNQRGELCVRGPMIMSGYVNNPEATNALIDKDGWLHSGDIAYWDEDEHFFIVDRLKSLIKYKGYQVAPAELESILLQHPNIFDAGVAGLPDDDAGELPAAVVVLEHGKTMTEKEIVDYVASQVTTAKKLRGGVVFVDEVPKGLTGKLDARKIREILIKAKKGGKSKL
- protocolText: inhibition of purified Photinus pyralis luciferase – biochemical, luminescence, purified enzyme, 2006 set, primary screen (AID 1141);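 note: cell-free assay with purified firefly luciferase at 100 ng per well in PBS; test concentration not given here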
- particulars: purified firefly luciferase, SteadyGlo luminescence, 30 min; higher = more signal, called active from +8 up or from −8 down
// no unit string in output, number only

Task item: For the compound NCCCCCCNC(=O)[C@H]1C[C@H]2C(=O)N[C@@H](Cc3ccccc3)C(=O)N2[C@H]1c1cccc(OCCO)c1 , give its measured z-score value.
Reply: 0.0326

Task item: Return value of z-score for input C[N+](C)(C)CCCC[C@@H]1NC(=O)[C@@H]2C[C@H](C(=O)NCCCCCN)[C@H](c3ccc(O)cc3)N2C1=O , no commentary.
Reply: -1.26

Task item: Please supply the value of reported z-score for the item COc1cc2c(cc1OC)CN(C(=O)[C@H]1[C@@H]3C(=O)O[C@@H](c4ccccc4)[C@@H](c4ccccc4)N3[C@@H](c3ccccc3OCCO)[C@]13C(=O)Nc1ccc(C#CCCO)cc13)CC2
Reply: -0.255

Task item: # return recorded z-score for entry COCCOC(=O)N1C(=O)[C@@]2(c3cc(C#CC4=CCCCC4)ccc31)[C@H](C(N)=O)[C@H]1C(=O)O[C@H](c3ccccc3)[C@H](c3ccccc3)N1[C@@H]2c1ccc(O)cc1
Reply: -1.98

Task item: Tell me measured z-score for C[C@H]1C2[C@H](Cc3ccccc3)NC(=O)[C@]23C(=O)NCC(=O)N2CCC[C@H]2C(=O)NC/C=C/CCC/C=C/C3[C@@H]2O[C@]12C (stereo partly specified) please.
Reply: -0.44

Task item: In one line, give reported z-score of the entry COC(=O)c1c(CC[C@@H](CO)NC(=O)N[C@H](Cc2ccccc2)Cn2cc(-c3ccccn3)nn2)oc(C(C)=O)c1C(=O)OC .
Reply: 0.67

Task item: # return recorded z-score for input COc1ccc(NC(=O)O[C@H]2[C@H](OC(=O)c3cc4ccccc4[nH]3)[C@@H](OC(=O)c3cc4ccccc4[nH]3)[C@@H](OC)O[C@@H]2CO)cc1
Reply: -2.09

Task item: Check the records and state z-score for CO[C@H]1O[C@H](CO)[C@@H](OC(=O)Nc2ccccc2-c2ccccc2)[C@H](OC(=O)Nc2ccccc2-c2ccccc2)[C@@H]1OC(=O)Nc1ccccc1-c1ccccc1
Reply: -0.858

Task item: Please give measured z-score of the following entry: COc1ccc([Si](C)(C)[C@@H]2[C@@H](CCn3cc([C@H](O)c4ccccc4)nn3)O[C@]3(C(=O)N(Cc4cccc(N5CCC5=O)c4)c4ccccc43)[C@H]2C)cc1
Reply: 0.258

Task item: # return recorded z-score for entry CC(C)CNC(=O)[C@@]1(Cc2ccccc2I)c2ccccc2C(=O)N(Cc2ccccc2C(F)(F)F)[C@H]1c1ccc(CO)cc1
Reply: 0.654

Task item: Look up and report measured z-score for this entry: CC[C@@H]1C=C(C(=O)O)[C@H](c2ccc(C)cc2)N1S(=O)(=O)c1ccc(C)cc1
Reply: 2.28
